The measurements presented in this section are drawn from patent US20240270762A1.

# MIC per entry
Test system: A. baumannii CDC-0036
assay_notes: microbe, parasite or virus in culture
Type: cell-based
condition_notes: Acinetobacter baumannii, CDC0036, read-out: MIC, A. baumannii CDC-0036

INSERT INTO results (compound, quantity, test_result) VALUES
  ('O=C(O)c1c(F)ccc2c1OB(O)[C@@H](NC(=O)[C@H](NC(=O)N1CCN(C3CCN(C(=O)Nc4c(F)ccc(O)c4F)CC3)C1=O)c1cc(F)c(O)c(O)c1Cl)C2 (single isomer, unassigned) [Example 454]', 'MIC', '< 1 µg/mL'),
  ('O=C(O)c1c(F)ccc2c1OB(O)[C@@H](NC(=O)[C@H](NC(=O)N1CCN(C3CCN(C(=O)Nc4cccc(O)c4F)CC3)C1=O)c1cc(F)c(O)c(O)c1Cl)C2 (single isomer, unassigned) [Example 446]', 'MIC', '< 1 µg/mL'),
  ('O=C(O)c1c(F)ccc2c1OB(O)[C@@H](NC(=O)[C@@H](NC(=O)N1CCN(C3CCN(C(=O)Nc4ccc(O)cc4)CC3)C1=O)c1cc(F)c(O)c(O)c1Cl)C2 (single isomer, unassigned) [Example 467]', 'MIC', '< 1 µg/mL'),
  ('O=C(NCCN1CCN(C(=O)NC(C(=O)N[C@H]2Cc3ccc(F)c(C(=O)O)c3OB2O)c2cc(F)c(O)c(O)c2Cl)C(=O)C1=O)c1cccc(O)c1 (some centres unmarked) [Example 215]', 'MIC', '8 to 16 µg/mL');

Query: Please tell me: MIC of O=C(O)c1c(F)ccc2c1OB(O)[C@@H](NC(=O)[C@H](NC(=O)N1CCN(C3CCN(C(=O)Nc4ccc(F)c(O)c4)CC3)C1=O)c1cc(F)c(O)c(O)c1Cl)C2 (single isomer, unassigned) [Example 449] , system A. baumannii CDC-0036?
Result: < 1 µg/mL

----------
pIC50: −log10 of the molar value.
Listed here: compounds with reported pIC50 for UniProt:A0ABX6CK25.
Sequence (A0ABX6CK25 64-610): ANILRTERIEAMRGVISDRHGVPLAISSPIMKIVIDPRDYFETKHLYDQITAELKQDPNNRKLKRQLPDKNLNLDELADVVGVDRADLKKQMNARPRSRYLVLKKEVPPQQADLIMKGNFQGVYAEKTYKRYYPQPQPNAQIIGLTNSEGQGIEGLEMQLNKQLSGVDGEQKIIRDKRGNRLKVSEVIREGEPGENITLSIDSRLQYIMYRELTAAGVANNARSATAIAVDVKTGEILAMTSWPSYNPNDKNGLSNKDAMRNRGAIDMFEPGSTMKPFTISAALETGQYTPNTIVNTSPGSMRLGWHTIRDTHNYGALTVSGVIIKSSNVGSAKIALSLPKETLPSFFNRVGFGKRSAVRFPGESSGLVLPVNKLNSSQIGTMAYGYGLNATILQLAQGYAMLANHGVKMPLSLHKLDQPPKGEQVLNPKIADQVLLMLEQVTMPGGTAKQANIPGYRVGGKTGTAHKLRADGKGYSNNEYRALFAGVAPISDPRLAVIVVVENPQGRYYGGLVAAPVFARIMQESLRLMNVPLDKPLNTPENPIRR

Query: Reported pIC50 for CS(=O)(=O)N1CCN(C(=O)N[C@@H](C(=O)N[C@H]2Cc3cccc(C(=O)O)c3OB2O)c2cc(F)c(P(=O)(O)O)c(F)c2)C1=O (single isomer, unassigned) : what is it?
Result: > 5.00

Query: Same lookup for `O=C(NCCCN1CCN(C(=O)N[C@H](C(=O)N[C@H]2Cc3ccc(F)c(C(=O)O)c3OB2O)c2cc(F)c(O)c(O)c2Cl)C(=O)C1=O)c1cccc(O)c1Cl` , please.
Result: 3.60 to 4.30

----------
Property: MIC; scope: individual compounds
Test system: P. aeruginosa CDC-0110
assay_notes: microbe, parasite or virus in culture
Type: cell-based
condition_notes: Pseudomonas aeruginosa, CDC0110, read-out: Minimum inhibitory concentration, P. aeruginosa CDC-0110

Example compounds with recorded MIC:
INSERT INTO measurements (compound, test_result) VALUES
  ('O=C(O)c1c(F)ccc2c1OB(O)[C@@H](NC(=O)C(NC(=O)N1CCN(C3CCN(C(=O)c4ccc(O)cc4O)CC3)C(=O)C1=O)c1cc(F)c(O)c(O)c1Cl)C2 (some centres unmarked) [Example 476]', '< 1 µg/mL'),
  ('O=C(O)c1c(F)ccc2c1OB(O)[C@@H](NC(=O)C(NC(=O)N1CCN(C3CCN(C(=O)Nc4cc(O)ccc4F)CC3)C(=O)C1=O)c1cc(F)c(O)c(O)c1Cl)C2 (some centres unmarked) [Example 479]', '< 1 µg/mL'),
  ('O=C(NCCS(=O)(=O)N1CCN(C(=O)N[C@@H](C(=O)N[C@H]2Cc3ccc(F)c(C(=O)O)c3OB2O)c2cc(F)c(O)c(O)c2Cl)C1=O)Nc1cccnc1 [Example 267]', '2 to 4 µg/mL'),
  ('O=C(NCCCN1CCN(C(=O)N[C@H](C(=O)N[C@H]2Cc3ccc(F)c(C(=O)O)c3OB2O)c2cc(F)c(O)c(O)c2Cl)C(=O)C1=O)c1ccnc(F)c1F [Example 299]', '8 to 16 µg/mL');

Could you now look at the following compound, please?
Query: Name the reported MIC value associated with the compound O=C(CN1CCN(C(=O)NC(C(=O)N[C@H]2Cc3ccc(F)c(C(=O)O)c3OB2O)c2cc(F)c(O)c(O)c2Cl)C(=O)C1=O)Nc1cccnc1 (some centres unmarked) [Example 234]
Result: < 1 µg/mL

----------
System: P. aeruginosa (ΔmexAB-oprM)
assay_notes: Broth microdilution MIC in CAMHB
Type: cell-based
condition_notes: Pseudomonas aeruginosa; read-out: MIC P. aeruginosa ΔmexAB-oprM
quantity: MIC

Some entries whose results are on file:
INSERT INTO assay_data (compound, test_result) VALUES
  ('O=C(O)c1cccc2c1OB(O)[C@@H](NC(=O)C(NS(=O)(=O)C1CC1)c1ccc(P(=O)(O)O)cc1)C2 (stereo partly shown)', '> 128 µg/mL'),
  ('O=C(O)c1cccc2c1OB(O)[C@@H](NC(=O)[C@@H](NC(=O)c1cnc3n(c1=O)CCS3)c1ccc(P(=O)(O)O)cc1)C2 (single isomer, unassigned)', '> 128 µg/mL'),
  ('NCCN1CCN(C(=O)NC(C(=O)N[C@H]2Cc3cccc(C(=O)O)c3OB2O)c2ccc(P(=O)(O)O)cc2)C(=O)C1=O (stereo partly shown)', '32 to 64 µg/mL'),
  ('CN1CCN(C(=O)NC(C(=O)N[C@H]2Cc3cccc(C(=O)O)c3OB2O)c2ccc(P(=O)(O)O)cc2)C1=O (stereo partly shown)', '8 to 16 µg/mL'),
  ('CCN1CCN(C(=O)NC(C(=O)N[C@H]2Cc3cccc(C(=O)O)c3OB2O)c2cccc(CP(=O)(O)O)c2)C(=O)C1=O (stereo partly shown)', '8 to 16 µg/mL'),
  ('CS(=O)(=O)N1CCN(C(=O)N[C@H](C(=O)N[C@H]2Cc3cccc(C(=O)O)c3OB2O)c2ccc(P(=O)(O)O)cc2)C1=O (single isomer, unassigned)', '32 to 64 µg/mL');

Query: Test system P. aeruginosa (ΔmexAB-oprM); read-out MIC; what value for CCN1CCN(C(=O)N[C@H](C(=O)N[C@H]2Cc3ccc(F)c(C(=O)O)c3OB2O)c2ccc(P(=O)(O)O)cc2)C(=O)C1=O (single isomer, unassigned) ?
Result: > 128 µg/mL

Query: Follow-up entry: Cn1cccc(C(=O)N[C@H](C(=O)N[C@H]2Cc3cccc(C(=O)O)c3OB2O)c2ccc(P(=O)(O)O)cc2)c1=O (single isomer, unassigned)
Result: > 128 µg/mL

Query: Thanks! And CS(=O)(=O)N1CCN(C(=O)NC(C(=O)N[C@H]2Cc3cccc(C(=O)O)c3OB2O)c2ccc(P(=O)(O)O)c(F)c2O)C1=O (stereo partly shown) ?
Result: > 128 µg/mL

Query: Then what about the compound NC(C(=O)N[C@H]1Cc2ccc(F)c(C(=O)O)c2OB1O)c1ccc(P(=O)(O)O)cc1 (stereo partly shown) ?
Result: > 128 µg/mL

Query: // same read-out, input: O=C(O)c1c(F)ccc2c1OB(O)[C@@H](NC(=O)C(NC(=O)N1CCN(S(=O)(=O)c3ccc(O)c(O)c3Cl)C1=O)c1ccc(P(=O)(O)O)cc1)C2 (stereo partly shown)
Result: < 1 µg/mL

Query: Also check `CS(=O)(=O)N1CCC[C@H]1C(=O)N[C@H](C(=O)N[C@H]1Cc2cccc(C(=O)O)c2OB1O)c1ccc(P(=O)(O)O)cc1`
Result: > 128 µg/mL

Query: Same read-out for O=C(O)c1cccc2c1OB(O)[C@@H](NC(=O)[C@H](NC(=O)c1cnc3n(c1=O)CCS3)c1ccc(P(=O)(O)O)cc1)C2 (single isomer, unassigned) ?
Result: 32 to 64 µg/mL

Query: Param item: CCN1CCN(C(=O)NC(C(=O)N[C@H]2Cc3cccc(C(=O)O)c3OB2O)c2ccc(CP(=O)(O)O)cc2)C(=O)C1=O (stereo partly shown)
Result: 8 to 16 µg/mL

Query: What do you get for `CS(=O)(=O)N1CCC[C@@H]1C(=O)N[C@@H](C(=O)N[C@H]1Cc2cccc(C(=O)O)c2OB1O)c1ccc(P(=O)(O)O)cc1` ?
Result: > 128 µg/mL

Query: Same thing, different compound: O=C(O)c1cccc2c1OB(O)[C@@H](NC(=O)C(NC(=O)[C@H]1CCCN1)c1ccc(P(=O)(O)O)cc1)C2 (stereo partly shown)
Result: > 128 µg/mL

Query: And for N#Cc1ccnc(C(=O)NC(C(=O)N[C@H]2Cc3cccc(C(=O)O)c3OB2O)c2ccc(P(=O)(O)O)cc2)c1 (stereo partly shown) ?
Result: > 128 µg/mL

Query: Would you kindly repeat that for `O=C(O)c1cccc2c1OB(O)[C@@H](NC(=O)[C@H](NC(=O)N1CCNC1=O)c1ccc(P(=O)(O)O)cc1)C2` ?
Result: 8 to 16 µg/mL

Query: Again, but for CS(=O)(=O)N1CCN(C(=O)N[C@@H](C(=O)N[C@H]2Cc3ccc(F)c(C(=O)O)c3OB2O)c2ccc(P(=O)(O)O)c(F)c2)C1=O (single isomer, unassigned)
Result: 32 to 64 µg/mL

Query: Try O=C(O)c1cccc2c1OB(O)[C@@H](NC(=O)C(NC(=O)c1cnc[nH]c1=O)c1ccc(P(=O)(O)O)cc1)C2 (stereo partly shown) next.
Result: 32 to 64 µg/mL

Query: Here is the next compound: O=C(O)c1c(F)ccc2c1OB(O)[C@@H](NC(=O)[C@H](NC(=O)N1CCN(Cc3ccc(O)c(O)c3Cl)C(=O)C1=O)c1ccc(P(=O)(O)O)cc1)C2 (single isomer, unassigned)
Result: < 1 µg/mL

Query: Request: CS(=O)(=O)N1CCN(C(=O)N[C@@H](C(=O)N[C@H]2Cc3cccc(C(=O)O)c3OB2O)c2ccc(P(=O)(O)O)c(F)c2)C1=O (single isomer, unassigned)
Result: 32 to 64 µg/mL

Query: Cool, now CCN1CCN(C(=O)NC(C(=O)N[C@H]2Cc3cccc(C(=O)O)c3OB2O)c2c(F)cc(P(=O)(O)O)cc2F)C(=O)C1=O (stereo partly shown)
Result: 32 to 64 µg/mL

Query: Repeat for the following compound: CCN1CCN(C(=O)NC(C(=O)N[C@H]2Cc3cccc(C(=O)O)c3OB2O)c2ccc(P(=O)(O)O)c(F)c2O)C(=O)C1=O (stereo partly shown)
Result: > 128 µg/mL

Query: For CCN1CCN(C(=O)NC(C(=O)N[C@H]2Cc3cccc(C(=O)O)c3OB2O)c2ccc(P(=O)(O)O)cc2)C1=O (stereo partly shown) then?
Result: 8 to 16 µg/mL
